Where these numbers come from: patent US9452990B2

Target: human complement factor B (CVF-Bb complex) (Homo sapiens (Human))
Assay: Human Complement Factor B ELISA Assay
Type: biochemical
Counter-ions that a name gives are not always drawn.
// map IC50 to label using group A (below 50 nM), group B (50 nM to below 200 nM), group C (200 nM or more)

Would you please look over these solved cases?
C#Cc1ccc([C@H](N)CC(=O)N2CCN(c3nc(N)c4cc(OC)c(OC)c(F)c4n3)CC2)cc1 [Example 42, hydrochloride] | group C
COc1cc2c(N)nc(N3CCN(C(=O)C[C@@H](N)Cc4ccncc4)C[C@@H]3C)nc2c(F)c1OC [Example 63, hydrochloride] | group C
COc1cc2c(N)nc(N3CCN(C(=O)C[C@@H](N)c4ccc(F)cc4)C[C@@H]3C)nc2c(F)c1OC [Example 60, hydrochloride] | group A
COc1cc2c(N)nc(N3CCN(C(=O)C[C@@H](N)c4ccc(Cl)cc4)CC3)nc2c(F)c1OC [Example 48, hydrochloride] | group B
COc1cc2c(N)nc(N3CCN(C(=O)C[C@@H](N)c4ccoc4)CC3)nc2c(F)c1OC [Example 35, hydrochloride] | group C

Problem: Band for COc1cc2c(N)nc(N3CCN(C(=O)C[C@@H](N)c4ccco4)CC3)nc2c(F)c1OC [Example 34, hydrochloride] ?
Result: group B

Problem: Band for COc1cc2c(N)nc(N3CCN(C(=O)C[C@@H](N)c4ccc(C#N)cc4)CC3)nc2c(F)c1OC [Example 44, hydrochloride] ?
Result: group A

Problem: Band for CCC[C@H]1CN(C(=O)C[C@@H](N)c2ccc(C#N)cc2)CCN1c1nc(N)c2cc(OC)c(OC)c(F)c2n1 [Example 67, hydrochloride] ?
Result: group A

Problem: Band for CC[C@H]1CN(C(=O)C[C@@H](N)c2ccc(C(F)(F)F)cc2)CCN1c1nc(N)c2cc(OC)c(OC)c(F)c2n1 [Example 66, hydrochloride] ?
Result: group B

Problem: Band for COc1cc2c(N)nc(N3CCN(C(=O)C[C@@H](N)Cc4ccccc4)C[C@@H]3C)nc2c(F)c1OC [Example 62, hydrochloride] ?
Result: group C

Problem: Band for CCC[C@H]1CN(C(=O)C[C@@H](N)c2ccc(C(F)(F)F)cc2)CCN1c1nc(N)c2cc(OC)c(OC)c(F)c2n1 [Example 68, hydrochloride] ?
Result: group B

Problem: Band for CC[C@H]1CN(C(=O)C[C@@H](N)c2ccc(C#N)cc2)CCN1c1nc(N)c2cc(OC)c(OC)c(F)c2n1 [Example 64, hydrochloride] ?
Result: group A

Problem: Band for COc1cc2c(N)nc(N3CCN(C(=O)C[C@@H](N)c4cccs4)CC3)nc2c(F)c1OC [Example 36, hydrochloride] ?
Result: group B

Problem: Band for CC[C@H]1CN(C(=O)C[C@@H](N)c2ccc(F)cc2)CCN1c1nc(N)c2cc(OC)c(OC)c(F)c2n1 [Example 65, hydrochloride] ?
Result: group A

Problem: Band for COc1cc2c(N)nc(N3CCN(C(=O)C[C@@H](N)c4ccc(F)c(Cl)c4)CC3)nc2c(F)c1OC [Example 52, hydrochloride] ?
Result: group B

Problem: Band for COc1cc2c(N)nc(N3CCN(C(=O)C[C@@H](N)c4ccc(C(F)(F)F)cc4)CC3)nc2c(F)c1OC [Example 55, hydrochloride] ?
Result: group B

###

Target: human complement factor B (CVF-Bb complex) (Homo sapiens (Human), UniProt P00751)
Experiment: Human Complement Factor B ELISA Assay
Assay type: biochemical
Settings: CVF-Bb complex 3 nM, 1 hour preincubation with compound at room temperature, human C3 substrate 1 μM, C3a quantified by ELISA; read-out: Factor B IC50
pIC50: −log10 of the molar value.
Each entry gets not met if its pIC50 stays under 8, and met if its pIC50 is 8 or above.

COc1cc2c(N)nc(N3CCN(C(=O)C[C@H]4NCCc5ccccc54)CC3)nc2c(F)c1OC | not met

Problem: # bool: pIC50 of CCC[C@H]1CN(C(=O)/C=C/c2ccc(C#N)cc2)CCN1c1nc(N)c2cc(OC)c(OC)c(F)c2n1 >= 8
Result: not met

Problem: # bool: pIC50 of CCN[C@H](CC(=O)N1CCN(c2nc(N)c3cc(OC)c(OC)c(F)c3n2)CC1)c1ccc(C#N)cc1 >= 8
Result: met

Problem: # bool: pIC50 of COCCC1CN(C(=O)/C=C/C2CC2)CCN1c1nc(N)c2cc(OC)c(OC)c(F)c2n1 (stereo not shown) >= 8
Result: not met

Problem: # bool: pIC50 of COc1cc2c(N)nc(N3C[C@@H](C)N(C(=O)C[C@@H](N)c4ccc(F)cc4)C[C@@H]3C)nc2c(F)c1OC >= 8
Result: not met

Problem: # bool: pIC50 of [2H]C([2H])([2H])C([2H])([2H])N[C@H](CC(=O)N1CCN(c2nc(N)c3cc(OC)c(OC)c(F)c3n2)CC1)c1ccc(F)cc1 >= 8
Result: met

###

Provide the recorded pIC50 for the entries that follow.
Target: human complement factor B (CVF-Bb complex) (Homo sapiens (Human), UniProt P00751)
Assay: Human Complement Factor B ELISA Assay
Assay type: biochemical
Details: CVF-Bb complex 3 nM, 1 hour preincubation with compound at room temperature, human C3 substrate 1 μM, C3a quantified by ELISA; read-out: Factor B IC50
Procedure: Human Complement Factor B ELISA Assay CVF-Bb complex prepared from purified cobra venom factor (1 μM), recombinant human complement factor B (expressed in drosophila cells and purified using standard methods) and human complement factor D (expressed in E. Coli, refolded and purified using standard methods). […] The product of the reaction, C3a, was quantified by means of an enzyme-linked-immunosorbent assay. […]
Answers are plain numbers, as −log10 of the molar value.

COCCOc1c(OC)cc2c(N)nc(N3CCN(C(=O)C[C@@H]4CCCN4)CC3)nc2c1F | 5.23
COCCN[C@H](CC(=O)N1CCN(c2nc(N)c3cc(OC)c(OC)c(F)c3n2)CC1)c1ccc(F)cc1 | 7.70

The following compounds each have a reported value; give each one's pIC50.
1. COc1cc2c(N)nc(N3CCN(C(=O)C[C@@H](N)c4ccccc4)CC3)nc2c(F)c1OC
2. COc1cc2c(N)nc(N3CCN(C(=O)C[C@@H](N)c4cccc(C#N)c4)CC3)nc2c(F)c1OC
3. C#CC[C@H](N)CC(=O)N1CCN(c2nc(N)c3cc(OC)c(OC)c(F)c3n2)CC1
4. COc1cc2c(N)nc(N3CCN(C(=O)C[C@@H](CN)c4ccccc4)CC3)nc2c(F)c1OC

Result:
6.64
7.40
5.98
6.15

The following compounds each have a reported value; give each one's pIC50.
1. COc1cc2c(N)nc(N3CCN(C(=O)C[C@H](c4ccccc4)N(C)C)CC3)nc2c(F)c1OC
2. COc1cc2c(N)nc(N3CCN(C(=O)C[C@@H](N)c4ccc(C)cc4)CC3)nc2c(F)c1OC

Result:
1: 7.10; 2: 7.15

###

Target: human complement factor B (CVF-Bb complex) (Homo sapiens (Human), UniProt P00751)
Assay: Human Complement Factor B ELISA Assay
Type: biochemical
Details: CVF-Bb complex 3 nM, 1 hour preincubation with compound at room temperature, human C3 substrate 1 μM, C3a quantified by ELISA; read-out: Factor B IC50
quantity: IC50 (µM)
Give bare numbers, in µM.

The following molecules each have a reported value; give each one's IC50.
1. COc1cc2c(N)nc(N3CCN(C(=O)C[C@@H](NC(C)C)c4ccc(C#N)cc4)CC3)nc2c(F)c1OC
2. COc1cc2c(N)nc(N3CCN(C(=O)C[C@@H]4CCCCN4)CC3)nc2c(F)c1OC
3. COc1cc2c(N)nc(N3CCN(C(=O)CC4NCCc5cc(F)ccc54)CC3)nc2c(F)c1OC (stereo not shown)

Result:
1. 0.003
2. 0.23
3. 0.12

Problem: Query the reported IC50 for human complement factor B (CVF-Bb complex) (Homo sapiens (Human), UniProt P00751); item: COc1cc2nc(N3CCN(C(=O)C[C@@H](N)c4ccc(F)cc4)CC3)nc(N)c2c(F)c1OC
Result: 0.03

###

Molecular target: human complement factor B (CVF-Bb complex) (Homo sapiens (Human), UniProt P00751)
Experiment: Human Complement Factor B ELISA Assay
Assay type: biochemical
Conditions: CVF-Bb complex 3 nM, 1 hour preincubation with compound at room temperature, human C3 substrate 1 μM, C3a quantified by ELISA; read-out: Factor B IC50
quantity: pIC50
Give bare numbers, as −log10 of the molar value.

These solved cases illustrate the format of a correct answer.
COc1cc2c(N)nc(N3CCN(C(=O)C[C@H](c4ccc(F)cc4)N4CCCCC4)CC3)nc2c(F)c1OC [Example 99] | 8.22
CC[C@H]1CN(C(=O)[C@@H]2CCc3ccccc3[C@@H]2N)CCN1c1nc(N)c2cc(OC)c(OC)c(F)c2n1 [Example 106] | 5.58
COc1cc2c(N)nc(N3CCN(C(=O)C[C@@H](NCC4CC4)c4ccsc4)CC3)nc2c(F)c1OC [Example 93] | 8.40
COc1cc2c(N)nc(N3CCN(C(=O)/C=C/c4ccc(C#N)cc4)C[C@@H]3C)nc2c(F)c1OC [Example 7] | 7.70
CN[C@H](CC(=O)N1CCN(c2nc(N)c3cc(OC)c(OC)c(F)c3n2)CC1)C1CCCCC1 [Example 78] | 7.10

The following compounds each have a reported value; give each one's pIC50.
1. COc1cc2c(N)nc(N3CCN(C(=O)C[C@@H](N)c4ccsc4)CC3)nc2c(F)c1OC [Example 37]
2. COc1cc2c(N)nc(N3CCN(C(=O)C[C@H](c4ccc(F)cc4)N4CCCC4)CC3)nc2c(F)c1OC [Example 103]
3. COc1cc2c(N)nc(N3CCN(C(=O)C[C@@H]4CCCN4CC(C)C)CC3)nc2c(F)c1OC [Example 108]
4. COc1cc2c(N)nc(N3CCN(C(=O)C[C@@H](NC(C)C)c4ccc(F)cn4)CC3)nc2c(F)c1OC [Example 101]
5. COCCCN[C@H](CC(=O)N1CCN(c2nc(N)c3cc(OC)c(OC)c(F)c3n2)CC1)c1ccc(F)cc1 [Example 94]
6. COc1cc2c(N)nc(N3[C@H](C)CN(C(=O)C[C@@H](NC(C)C)c4ccc(C#N)cc4)C[C@@H]3C)nc2c(F)c1OC [Example 97]

Result:
1. 7.40
2. 7.82
3. 6.77
4. 7.89
5. 8.22
6. 7.96
